# run description: Drug uptake in BALB/c mouse plasma at 1 mg/kg, iv measured after 60 mins by LC-MS method
# Format: ADME, organism-based
measurement kind: concentration at 1 h (nM)
Numeric only. Scale: nM

// query What value of concentration at 1 h has been recorded for this entry: COc1cccc(/C=C/C(=O)c2cc(OC)c(OC)cc2O)c1
// result 21

====

# run description: Solubility of the compound in phosphate buffered saline with 10% DMSO measured after 18 hrs by UV-vis spectroscopic method
# Assay type: physicochemical
measurement kind: solubility at 18 h (µM)
Numeric only. Scale: µM

// query What value of solubility at 18 h has been recorded for this entry: COc1cccc(/C=C/C(=O)c2cc(OC)c(OC)cc2O)c1
// result 11.4

Hey, just so you know, these numbers are from ChEMBL document CHEMBL3997782.
